All values here come from patent US10941157B2.

# System: Collectotrichum graminicola (Cg)
# Experiment notes: In vitro pathogen growth inhibition assay, Cg
# Type: cell-based
# Condition set: 48 h, concentration sufficient to ≥90% inhibition of growth; 48 hours vs 2% DMSO control; read-out: Compound Concentration (ppm) for ≥90% inhibition, Cg
# IC90 per entry
Readout type: IC90

{"Compound": "COc1ccc(F)cc1[C@@H](O)Cn1c(=O)n(C(C)(C)C(N)=O)c(=O)c2c(C)c(-n3nccn3)sc21 [Compound I-221]", "Readout type": "IC90", "Experimental result": "50 µg/mL"}
{"Compound": "COc1ccc(F)cc1[C@H](Cn1c(=O)n(C(C)(C)C(=O)NC(C)C)c(=O)c2c(C)c(-n3cncn3)sc21)OCCC#N [Compound I-317]", "Readout type": "IC90", "Experimental result": "50 µg/mL"}
{"Compound": "CCOC(=O)c1sc2c(c1C)c(=O)n(C(C)(C)C(N)=O)c(=O)n2C[C@H](OC1CCOCC1)c1ccccc1OC [Compound I-174]", "Readout type": "IC90", "Experimental result": "50 µg/mL"}
{"Compound": "COc1ccc(F)cc1[C@H](Cn1c(=O)n([C@@H](C)C(=O)NC2CCC2)c(=O)c2c(C)c(-n3cccn3)sc21)OCCC#N [Compound I-312]", "Readout type": "IC90", "Experimental result": "> 50 µg/mL"}
{"Compound": "CCOC(=O)c1sc2c(c1C)c(=O)n([C@@H](C)C(N)=O)c(=O)n2C[C@H](OCCC#N)c1cc(F)ccc1OC [Compound I-227]", "Readout type": "IC90", "Experimental result": "> 50 µg/mL"}
{"Compound": "CCNC(=O)[C@H](C)n1c(=O)c2c(C)c(-n3cccn3)sc2n(C[C@H](OCCC#N)c2cc(F)ccc2OC)c1=O [Compound I-306]", "Readout type": "IC90", "Experimental result": "> 50 µg/mL"}
{"Compound": "COc1ccc(F)cc1[C@@H](CCCC#N)Cn1c(=O)n(C(C)(C)C(=O)NC(C)C)c(=O)c2c(C)c(-n3ccnn3)sc21 [Compound I-341]", "Readout type": "IC90", "Experimental result": "> 50 µg/mL"}
{"Compound": "COc1ccc(F)cc1[C@](O)(CCO)Cn1c(=O)n(C(C)(C)C(=O)NC(C)C)c(=O)c2c(C)c(-n3nccn3)sc21 [Compound I-275]", "Readout type": "IC90", "Experimental result": "50 µg/mL"}
{"Compound": "COc1ccc(F)cc1[C@H](Cn1c(=O)n(C(C)(C)C(=O)NC(C)C)c(=O)c2c(C)c(-n3nccn3)sc21)OCCN(C)C [Compound I-173]", "Readout type": "IC90", "Experimental result": "≥ 50 µg/mL"}
{"Compound": "COCCO[C@@H](Cn1c(=O)n([C@@H](C)C(=O)NC(C)C)c(=O)c2c(C)c(-n3cccn3)sc21)c1cc(F)ccc1OC [Compound I-311]", "Readout type": "IC90", "Experimental result": "> 50 µg/mL"}
{"Compound": "Cc1c(-n2cccn2)sc2c1c(=O)n(C(C)(C)C(=O)NC(C)C)c(=O)n2CCc1cc(F)ccc1OCCO [Compound I-337]", "Readout type": "IC90", "Experimental result": "> 50 µg/mL"}
{"Compound": "COc1ccc(F)cc1[C@H](Cn1c(=O)n(C(C)(C)C(N)=O)c(=O)c2c(C)c(-n3cccn3)sc21)OCCC#N [Compound I-190]", "Readout type": "IC90", "Experimental result": "> 50 µg/mL"}
{"Compound": "COc1ccc(F)cc1[C@@H](Cn1c(=O)n(C(C)(C)C(=O)NC(C)C)c(=O)c2c(C)c(-n3nccn3)sc21)OC(C)=O [Compound I-322]", "Readout type": "IC90", "Experimental result": "> 50 µg/mL"}
{"Compound": "CC(=O)Oc1ccc(F)cc1[C@@H](Cn1c(=O)n(C(C)(C)C(=O)NC(C)C)c(=O)c2c(C)c(-n3nccn3)sc21)OCCC#N [Compound I-334]", "Readout type": "IC90", "Experimental result": "> 50 µg/mL"}
{"Compound": "Cc1c(-n2cccn2)sc2c1c(=O)n(C(C)(C)C(=O)NC(C)C)c(=O)n2CCc1cc(F)ccc1OCCC#N [Compound I-336]", "Readout type": "IC90", "Experimental result": "> 50 µg/mL"}
{"Compound": "COc1ccc(F)cc1[C@H](Cn1c(=O)n(C(C)(C)C(=O)N2CCCC2)c(=O)c2c(C)c(-n3cccn3)sc21)OCCC#N [Compound I-203]", "Readout type": "IC90", "Experimental result": "50 µg/mL"}
{"Compound": "COc1ccc(F)cc1[C@H](Cn1c(=O)n([C@@H](C)C(N)=O)c(=O)c2c(C)c(-n3nccn3)sc21)OCCC#N [Compound I-199]", "Readout type": "IC90", "Experimental result": "50 µg/mL"}
{"Compound": "CCNC(=O)C(C)(C)n1c(=O)c2c(C)c(-n3nccn3)sc2n(C[C@@H](O)c2cc(F)ccc2OC)c1=O [Compound I-291]", "Readout type": "IC90", "Experimental result": "> 50 µg/mL"}
{"Compound": "CCNC(=O)C(C)(C)n1c(=O)c2c(C)c(-n3nccn3)sc2n(C[C@@H](OC(C)=O)c2cc(F)ccc2OC)c1=O [Compound I-318]", "Readout type": "IC90", "Experimental result": "> 50 µg/mL"}
